# Protocol notes: qHTS Assay to Identify Small Molecule Activators of BRCA1 Expression; also: nearly all actives have a fitted effect of over 80% in size
# Test parameters: MCF7-BRCA1-FFLuc reporter, luminescence, 48 h; series mostly up to 46.1 µM
Out of some 380,000 compounds screened, about 4,000 (1.1%) were called active. Inconclusive results (about 3%) are left out. Calls follow the shape of the dose curve; as a rule, active = well fitted activation curve with a large enough effect; inconclusive = small, poorly fitted or top-dose-only effect; inactive = no such curve, though single readings can be large or run the other way. This excerpt belongs to a sample that is enriched for actives.
Possible outcomes: active, inactive

                                    molecule  classification
 0  CCN1CC(CN(C)Cc2nc(-c3ccc(Cl)cc3)no2)CC1=O (stereo unspecified)        inactive
 1  Nc1ccc(/C=C/c2ccnc3ccccc23)c([N+](=O)[O-])c1        inactive
 2  CNc1ccc(-c2nc(-c3ccccc3C)no2)cc1[N+](=O)[O-]        inactive
 3  CC(C)(C)NC(=O)CSc1nc(-c2ccc(F)cc2)cc(C(F)(F)F)n1        inactive
 4  CC1=C(C(=O)OCc2ccc(C)cc2)C(c2c(Cl)cccc2Cl)CC(=O)N1 (stereo unspecified)        inactive
 5  CC(=O)N1c2ccc(S(=O)(=O)N3CCCCCC3)cc2CC1C(=O)NCc1ccccc1C (stereo unspecified)        inactive
 6          COc1ccc(N=C(C)c2sc3ccccc3c2O)cc1          active
 7  COc1ccccc1NC(=O)Cn1cnc2ccc(S(=O)(=O)N3CCC(C)CC3)cc2c1=O        inactive
 8  CCCCn1c(CNC(=O)C23CC4CC(CC(C4)C2)C3)nnc1SCC(=O)Nc1ccc(C)cc1        inactive
 9  Cc1ccc(-c2noc(CSc3nnc(-c4ccc(Cl)cc4)n3C)n2)cc1        inactive
10  COc1ccc2oc(-c3ccc(C)c(NC(=O)c4sc5ccccc5c4Cl)c3)nc2c1        inactive
